Source listed as patent US12139520B2.

experimental-system: hAM1R (human, UniProt Q16602)
assay-summary: cell-based or functional assay
Numbered stars: 1 amine (or outer) side, 2 acyl side, 3 side chain; on linkers, the order of the positions; unused ones are H or OH. Bridge positions count the residues as written; N and C are the ends. Square brackets hold non-standard residues; d marks the D form. Side chains are listed from the residue outwards. Ends that are not written are not given here. * marks the point of attachment. C20 diacid = O=C(O)CCCCCCCCCCCCCCCCCCC(=O)*; γGlu = O=C(O)[C@H](CCC(=O)[*:2])N[*:1]; Hyp = O=C(O)[C@@H]1C[C@@H](O)CN1; Trx = NC[C@H]1CC[C@H](C(=O)O)CC1; Cit = NC(=O)NCCC[C@H](N)C(=O)O; AEEA = NCCOCCOCC(=O)O
# hAM1R EC50 (cAMP) values compiled below

{"binder": "KCNTATCATQRLANFLVHSSNNFGAILSSTNVGSNTY (ligand, disulfide 2-7) [hAMY1-37]", "censoring-sign": ">", "hAM1R EC50 (cAMP), nM": 5000}
{"binder": "KCNFATCATQRLANFLVQFTDKDKDNVAPRSKIGPQGY [SEQ ID NO: 363]", "censoring-sign": "=", "hAM1R EC50 (cAMP), nM": 1.77}
{"binder": "GCRTGTCTVQRLAHQIYQFTDKFKDNVAPRSKISPQF[Hyp]-NH2 (disulfide 2-7 (inferred); ends not checked) [SEQ ID NO: 211]", "censoring-sign": "=", "hAM1R EC50 (cAMP), nM": 2760}
{"binder": "GCRFGTCTVQ[Cit]LAHQIYQFTDKDKDNVAPRTKVSPNG[Hyp]-NH2 (disulfide 2-7 (inferred); ends not checked) [SEQ ID NO: 288]", "censoring-sign": ">", "hAM1R EC50 (cAMP), nM": 5000}
{"binder": "GCRFGTCTVQ[Cit]LAHQIYQFTDKDKDNVAPRTKISPQG[Hyp]-NH2 (disulfide 2-7 (inferred); ends not checked) [SEQ ID NO: 294]", "censoring-sign": ">", "hAM1R EC50 (cAMP), nM": 5000}
{"binder": "GCRFGTCTVQRLAHQIYQFTDKDKDNVAPRSNISPQGY [SEQ ID NO: 182]", "censoring-sign": "=", "hAM1R EC50 (cAMP), nM": 100}
{"binder": "KCNTATCTVQRLAEQIYQFTDKDKDNVAPPTNVGSK([AEEA-AEEA-γGlu-C20 diacid])G[Hyp]-NH2 (disulfide 2-7 (inferred); ends not checked) [SEQ ID NO: 6]", "censoring-sign": ">", "hAM1R EC50 (cAMP), nM": 5000}
{"binder": "KCNTATCTVQRLAK([AEEA-AEEA-γGlu-C20 diacid])QIYQFTDKDKDNVAPPTNVGSNG[Hyp]-NH2 (disulfide 2-7 (inferred); not fully specified; ends not checked) [SEQ ID NO: 74]", "censoring-sign": ">", "hAM1R EC50 (cAMP), nM": 5000}
{"binder": "KCNTSTCTVARLADQITQFSNKDKAQVSPPTEVGPNS[Hyp]-NH2 (disulfide 2-7 (inferred); ends not checked) [SEQ ID NO: 8]", "censoring-sign": ">", "hAM1R EC50 (cAMP), nM": 5000}
{"binder": "GCRTGTCTVQRLAHQIYQFTDKFKDNVAPRSKISPQTF [SEQ ID NO: 239]", "censoring-sign": ">", "hAM1R EC50 (cAMP), nM": 5000}
{"binder": "GCRFGTCTVQ[Cit]LAHQIYQFTDKDKDNVAPRTNVGPNG[Hyp]-NH2 (disulfide 2-7 (inferred); ends not checked) [SEQ ID NO: 270]", "censoring-sign": "=", "hAM1R EC50 (cAMP), nM": 1880}
{"binder": "GCRFGTCTVQRLAHQIYQFTDKDKDNVAPRTNVGPQGY [SEQ ID NO: 362]", "censoring-sign": "=", "hAM1R EC50 (cAMP), nM": 18.1}
{"binder": "GCRFGTCTVQRLAHQIYQFTDKDKDNVAPRTNIGPNGY [SEQ ID NO: 381]", "censoring-sign": "=", "hAM1R EC50 (cAMP), nM": 7.61}
{"binder": "GCRFGTCTVQRLAHQIYQFTDKDKDNVAPRSKVGPQG[Hyp]-NH2 (disulfide 2-7 (inferred); ends not checked) [SEQ ID NO: 152]", "censoring-sign": "=", "hAM1R EC50 (cAMP), nM": 213}
{"binder": "{C20 diacid-Trx-γGlu-AEEA-AEEA}-K([AEEA-AEEA-γGlu-Trx-C20 diacid])CNTATCTVQRLAEQIYQFTDKDKDNVAPPTNVGSNG[Hyp] (disulfide 2-7 (inferred); ends not checked) [SEQ ID NO: 221]", "censoring-sign": ">", "hAM1R EC50 (cAMP), nM": 5000}
{"binder": "GCRTGTCTVQRLAHQIYQFTDKDKDNVAPRTNVGPQG[Hyp]-NH2 (disulfide 2-7 (inferred); ends not checked) [SEQ ID NO: 49]", "censoring-sign": "=", "hAM1R EC50 (cAMP), nM": 2980}
{"binder": "GCRFGTCTVQRLAHQIYQFTDKDKDNVAPRSNISPQG[Hyp]-NH2 (disulfide 2-7 (inferred); ends not checked) [SEQ ID NO: 158]", "censoring-sign": "=", "hAM1R EC50 (cAMP), nM": 2980}
{"binder": "{C20 diacid-γGlu}-KCNTATCTVQRLANQIYQFTDKDKDNVAPPTNVGSNG[Hyp]-NH2 (disulfide 2-7 (inferred); ends not checked) [SEQ ID NO: 21]", "censoring-sign": ">", "hAM1R EC50 (cAMP), nM": 5000}
{"binder": "KCNTATCTVQRLAHQIYQFTDKDKDNVAAPTNVGSNG[Hyp]-NH2 (disulfide 2-7 (inferred); ends not checked) [SEQ ID NO: 53]", "censoring-sign": ">", "hAM1R EC50 (cAMP), nM": 5000}
